# reported TGI; entries follow
- Tested on: CCRF-CEM leukemia
- Assay Name: NCI tumour cell line growth inhibition, 48 h
Measurement Type: TGI

O=C(O)CCC/C=C\C[C@H]1C=CC(=O)/C1=C/C[C@@H](O)CCc1cccc(C(F)(F)F)c1; 10.8 µM
Nc1ncc(Cl)c(NCC2(CO)CC(CCc3ccccc3)C2)n1 (stereo not given); > 100 µM
O=c1[nH]c2cc([N+](=O)[O-])ccc2nc1/C(=N/Nc1ccccc1)C(O)c1ccc(C(O)/C(=N\Nc2ccccc2)c2cnc3cc([N+](=O)[O-])ccc3n2)cc1 (stereo not given); > 100 µM
Clc1ccccc1C1=NN(c2ccccc2)C2c3ccccc3OCC12 (stereo not given); > 100 µM
CC1=CCC2C3(C)CCC2(C(C)C)C1C3 (stereo not given) (tested in a mixture with another compound); 56.9 µM
O=C(O)c1cc2ccccc2oc1=O; > 100 µM
C/C(=N\Nc1nc2ccccc2n1C)c1cnccn1; 6.17 µM
CC(C)OP(=O)(OC(C)C)/C(C#N)=C/c1ccco1; > 100 µM
Cc1ccccc1C(=O)Oc1ccc(O)cc1; > 100 µM
N#CC(C#N)=C(N)/C(C#N)=C/c1ccc2ccccc2n1; > 100 µM

---

- System: MOLT-4 leukemia
- Assay Name: NCI tumour cell line growth inhibition, 48 h
Where a SMILES comes first, the peptide text is derived from it. [ ]: non-standard residue; d: D form. The star is where a group is joined. Tyr(3-Br) = N[C@@H](Cc1ccc(O)c(Br)c1)C(=O)O; Boc = CC(C)(C)OC(=O)*
# TGI annotations
Measurement Type: TGI

COC(=O)CCC(=O)Nc1cc(Cl)ccc1Cl; > 100 µM
c1ccc(P(CCP(c2ccccn2)c2ccccn2)c2ccccc2)cc1; > 100 µM
Fc1ccc(-c2ncn(C3CCNCC3)c2-c2ccnc(Oc3ccc(F)c(F)c3)n2)cc1; > 19.1 µM
COC1=CC23CCCN2CCc2cc4c(cc2C3C1O)OCO4 (configuration not stated); > 100 µM
O=C1c2ccccc2NC1(c1ccccc1)c1c(-c2ccccc2)[nH]c2ccccc12 (configuration not stated); 20.6 µM
CC1(C)CC(=O)C2=C(C1)NC1=C(C(=O)CC(C)(C)C1)C2c1ccc([N+](=O)[O-])cc1; > 100 µM
Cc1nn(C(=O)c2ccncc2)c2c1C(c1ccccc1)SC(N)=N2 (configuration not stated); > 10 µM
O=C(c1ccccc1)c1oc2ccc(Br)cc2c1-c1cnn(-c2ccccc2)c1; > 100 µM
C=C1C(=O)C[C@@]23CCC[C@@]12CC(OCOC)C3 (some centres not stated); 9.93 µM
CCOC(=O)c1nc2ccccc2nc1Nc1ccc(OC)c(OC)c1; > 100 µM
CCOC(=O)Cc1csc2[n+]1C(=O)/C(=C\c1cccc(Cl)c1Cl)S2; 33.5 µM
O=C(O)CNc1ccc(C(=O)O)cc1; > 100 µM
N#CSc1c[nH]c2ccc(/C=C/C(=O)/C=C(/C=C/c3ccc4[nH]cc(SC#N)c4c3)OB(F)F)cc12; 1.62 µM
COC(=O)[C@H](Cc1ccc(O)c(Br)c1)NC(=O)[C@H](Cc1ccc(O)cc1)NC(=O)OC(C)(C)C (Boc-Tyr-[Tyr(3-Br)]-OMe); > 100 µM
N#CC(=C1CCCCC1)c1nc2ccccc2o1; > 100 µM
CC(C)OP(=O)(OC(C)C)/C(C#N)=C/c1ccco1; > 100 µM
O=C(Nc1nn(C(=O)c2ccc(Cl)cc2)c(=O)s1)c1ccc(Cl)cc1; > 100 µM
Nc1ccccc1NC(=O)c1ccc(CCCC(=O)Nc2ccc(C3CC3N)cc2)cc1 (configuration not stated); > 100 µM
CCCCc1ccc(Nc2nc(=S)c3[nH]cnc3[nH]2)cc1; 22.2 µM
COc1ccc(/C=C2\CC(C)CC3C2=NN(C(C)=O)C3c2ccc(OC)cc2)cc1 (configuration not stated); 50.1 µM
CCOC(=O)c1sc(N/N=C2\NC(=O)/C(=C/c3ccc([N+](=O)[O-])cc3)S2)nc1C; 31.1 µM
C=C(C)CC1(O)C(=O)C(OCC)=C1OCC (configuration not stated); > 100 µM

---

- System: 786-0 renal
- Assay Name: NCI tumour cell line growth inhibition, 48 h
This listing pairs compounds with measured TGI.
Measurement Type: TGI (µM)

CC(=O)Oc1cc2c(c3ncccc13)OC(C)(C)C2; 30.3
COc1ccc(N/N=C(\CCN(C)C)c2ccccc2)cc1; 12.4
[N-]=[N+]=Nc1c(C=O)c(=O)n(-c2ccccc2)c2ccccc12; 35
COC(=O)c1c(O)c([N+](=O)[O-])cc2c1c1c(n2Cc2ccccc2)C(=O)c2ccccc2C1=O; 59.6

---

- Tested on: PC-3 prostate
- Assay Name: NCI tumour cell line growth inhibition, 48 h
Overview of reported TGI across a group of compounds:
Measurement Type: TGI

COC(=O)c1c(O)c([N+](=O)[O-])cc2c1c1c(n2Cc2ccccc2)C(=O)c2ccccc2C1=O; 53.9 µM
CCOc1ccc(NC(=O)/C(=N\NC(C)(C)C)C2C(=O)Nc3ccccc3S2=O)cc1 (stereo not given); > 100 µM
CCn1cc(-c2ccnc3[nH]ccc23)c(-c2cccc(NC(=O)Nc3ccc(OCc4ccccc4)cc3)c2)n1; > 25 µM
CCCCOC(=O)NC(Nc1cccc(C(F)(F)F)c1)(C(F)(F)F)C(F)(F)F; > 100 µM
Cc1ccc(N=N/C(=N/NC(=O)c2cc(Cl)ccc2C(=O)c2ccccc2)c2ccc(N(CCC#N)CCC#N)cc2C)cc1; 47.2 µM

---

Property: GI50; scope: individual compounds
- Test system: UACC-62 melanoma
- Assay Name: NCI tumour cell line growth inhibition, 48 h
Measurement Type: GI50

O=C(Nc1ccccc1O)c1ccc(CNc2ccnc(C(F)(F)F)c2)cc1; 1.3 µM
COC1=CC(=O)C(OC)=C(OC)C1=O; 14.4 µM
CS(=O)(=O)CCNCc1ccc(-c2ccc3ncnc(Nc4ccc(OCc5cccc(F)c5)c(C(F)(F)F)c4)c3c2)o1; 3.94 µM
COc1ccc(-c2nc(C(=O)c3ccccc3)n(CC(=O)c3ccccc3)c2-c2ccc(OC)cc2)cc1; > 100 µM
Cc1nc([C@H]2CC[C@H]3[C@@H]4CCC5=CC(=O)CC[C@]5(C)[C@H]4CC[C@]23C)cs1; 4.1 µM
C[C@@H]1Cc2c([nH]c3ccccc23)[C@@H](c2c(F)cc(NC3CN(CCCF)C3)cc2F)N1CC(F)(F)CO; 2.35 µM
COc1cc2c3c(n(CCCNCCCNCCCNCCCN)c(=O)c2cc1OC)-c1cc2c(cc1C3=O)OCO2; 1.68 µM
O=C(O)c1ccc(S(=O)(=O)Nc2ccc3oc4c(c3c2)C(=O)CCC4)cc1; > 100 µM
OC(COc1ccc(F)cc1)Cn1cnc2c(Cl)ncnc21 (centres undefined); 79 µM

---

Reported TGI values are given for each entry in this list.
- System: HT29 colon
- Assay Name: NCI tumour cell line growth inhibition, 48 h
Measurement Type: TGI

CC1=C(C(=O)Nc2cc(=O)n(C)c(=O)n2C)C(c2ccc([N+](=O)[O-])cc2)C(C(=O)Nc2cc(=O)n(C)c(=O)n2C)=C(C)N1; > 100 µM
S=C(Nc1ccc(Cl)cc1)Nc1ccc(-c2nc3ccccc3o2)cc1; 41.8 µM
CC(=O)C1C(=O)NC(=O)C1=O (configuration not stated); > 100 µM
COc1cc(Nc2ncc(F)c(Nc3ccc4c(n3)NC(=O)C(C)(C)O4)n2)cc(OC)c1OC; > 100 µM
CCN(CC)CCN1C(=O)c2c(c(-c3ccccc3)c3ccccc3c2-c2ccccc2)C1=O; > 100 µM
COc1cc(C(=O)O[C@@H]2[C@@H](OC(=O)c3cc(OC)c(OC)c(OC)c3)[C@@H](OC)O[C@@H]3CO[C@@H](c4ccccc4)O[C@@H]23)cc(OC)c1OC; > 100 µM
Oc1ccccc1C=Nc1ccc(-c2nc3ccccc3[nH]2)cc1; > 100 µM
CC(C)(C)c1cc2c(O)c(c1)Cc1cc(C(C#N)(Cc3ccc4ccccc4c3)Cc3ccc4ccccc4c3)cc(c1O)Cc1cc(C(C)(C)C)cc(c1O)Cc1cc(C(C#N)(Cc3ccc4ccccc4c3)Cc3ccc4ccccc4c3)cc(c1O)C2; > 100 µM
C=C(C)CC1(O)C(=O)C(OCC)=C1OCC (configuration not stated); > 100 µM
N#CC(C#N)=C(N)/C(C#N)=C/c1ccc2ccccc2n1; 35.9 µM
CC(C)(C)OC(=O)N(O)CCCn1cnc2c(N)ncnc21; > 100 µM
Cc1oc(N)c(S(=O)(=O)c2ccc(Cl)cc2)c1C; > 100 µM
CCN(CC)c1ccc2c(c1)Oc1nc(N)c(C#N)c(N)c1C2Sc1ccc(OC)cc1 (configuration not stated); 4.27 µM
O=Cc1ccc(-c2ccc(-c3nc4ccccc4o3)cc2)s1; > 100 µM
Cc1nc(C(N)=S)sc1C(/C=C/c1ccc(Cl)c(Cl)c1)=N/NC(C)(C)C; > 100 µM
Nc1ccccc1NC(=O)c1ccc(CCCC(=O)Nc2ccc(C3CC3N)cc2)cc1 (configuration not stated); > 100 µM
Cc1nc2c(nc1C)-c1c(c3c(n1C)C(=O)CCC3)C(=O)C2=O; 3.89 µM
[N-]=[N+]=Nc1c(C=O)c(=O)n(-c2ccccc2)c2ccccc12; 55.1 µM
CN(C)/N=C(/c1nc2ccc([N+](=O)[O-])cc2[nH]c1=O)C(O)c1ccco1 (configuration not stated); > 100 µM
Cc1c2c(n(CCc3ccccc3)c1C)N(C)N=C(C#N)S2(=O)=O; > 100 µM
O=C(O)c1ccc(S(=O)(=O)Nc2ccc3oc4c(c3c2)C(=O)CCC4)cc1; > 100 µM
COc1ccc(Cc2cc3c(cc2OCC(=O)O)OCO3)cc1; > 100 µM

The values you see were collected from PubChem BioAssay (NCI).
